Cited source: ChEMBL document CHEMBL5352476

test: Selectivity index, ratio of IC50 for antiproliferative activity against HEK293T cells to IC50 for antiproliferative activity against human HepG2 cells; format: toxicity, cell-based; conditions: HEK293T cells versus HepG2 cells, read-out: Ratio IC50
REPORTED METRIC: selectivity ratio
Lab note: record the figure alone, no unit after it.

[in] Let me know recorded selectivity ratio for C[C@H]1[C@H](N2CCN(P(=O)(OCc3cncs3)N(CCCCl)CCCCl)CC2)O[C@@H]2O[C@@]3(C)CC[C@H]4[C@H](C)CC[C@@H]1[C@@]24OO3 (stereo partly specified) , thanks.
[out] 16

* * *

Reported IC50 at 72 h values for a set of compounds
experiment: Cytotoxicity against human WI-38 cells assessed as inhibition of cell growth incubated for 72 hrs by MTT assay; format: toxicity, cell-based
Report only the number, with the unit nM understood.

[in] Let me know recorded IC50 at 72 h for C[C@@H]1CC[C@H]2[C@@H](C)C(OCCOc3ccc(/C=C/S(=O)(=O)Nc4ccc(OC(F)(F)F)cc4)cc3)O[C@@H]3O[C@@]4(C)CC[C@@H]1[C@]32OO4 (some centres not stated) , thanks.
[out] 50

Moving on to the next compound.
[in] Let me know recorded IC50 at 72 h for C[C@@H]1CC[C@H]2[C@@H](C)C(OCCNC(=O)c3ccc(COc4ccc(/C=C/S(=O)(=O)Nc5ccc(OC(F)(F)F)cc5)cc4)cc3)O[C@@H]3O[C@@]4(C)CC[C@@H]1[C@]32OO4 (some centres not stated) , thanks.
[out] 90

* * *

tested on: HEK-293T; assay: Antiproliferative activity against HEK293T cells assessed as inhibition of cell growth incubated for 48 hrs by MTT assay; assay type: functional, cell-based; details: Homo sapiens
REPORTED METRIC: pIC50
// pIC50 is dimensionless: -log10 of concentration (M)

[in] Let me know recorded pIC50 for C[C@H]1[C@H](N2CCN(P(=O)(OCc3cncs3)N(CCCCl)CCCCl)CC2)O[C@@H]2O[C@@]3(C)CC[C@H]4[C@H](C)CC[C@@H]1[C@@]24OO3 (stereo partly specified) , thanks.
[out] 4.90

* * *

test system: SK-BR-3; test: Antiproliferative activity against human SK-BR-3 cells assessed as inhibition of cell growth incubated for 48 hrs by MTT assay; type: functional, cell-based; details: SK-BR-3, 48 h
REPORTED METRIC: IC50 (µM)
Report only the number, with the unit µM understood.

[in] Let me know recorded IC50 for C[C@H]1[C@H](N2CCN(P(=O)(OCc3cncs3)N(CCCCl)CCCCl)CC2)O[C@@H]2O[C@@]3(C)CC[C@H]4[C@H](C)CC[C@@H]1[C@@]24OO3 (stereo partly specified) , thanks.
[out] 12.5

* * *

system: U-87 MG; assay: Antiproliferative activity against human U87 cells assessed as inhibition of cell growth incubated for 72 hrs by MTT assay; type: functional, cell-based, U-87MG ATCC
REPORTED METRIC: pIC50
// pIC50 is dimensionless: -log10 of concentration (M)

[in] Write down measured pIC50 (U-87 MG) for this compound. C[C@H]1[C@@H](OCCCN=C=S)O[C@@H]2O[C@@]3(C)CC[C@H]4[C@H](C)CC[C@@H]1[C@@]24OO3
[out] 5.13

* * *

assay: Cytotoxicity against human MCF-10A cells assessed as inhibition of cell growth incubated for 96 hrs by MTT assay; type: toxicity, cell-based
REPORTED METRIC: IC50 at 96 h (µM)
Report only the number, with the unit µM understood.

[in] Let me know recorded IC50 at 96 h for C[C@H]1[C@@H](OCCc2cn(-c3ccc(S(N)(=O)=O)cc3)nn2)O[C@@H]2O[C@@]3(C)CC[C@H]4[C@H](C)CC[C@@H]1[C@@]24OO3 , thanks.
[out] 78

* * *

tested on: HT-29; assay: Antiproliferative activity against human HT-29 cells assessed as inhibition of cell growth incubated for 96 hrs by MTT assay; format: functional, cell-based; conditions: HT-29, 96 h
REPORTED METRIC: IC50 (nM)
Report only the number, with the unit nM understood.

[in] Write down measured IC50 (HT-29) for this compound. C[C@H]1[C@@H](OCCc2cn(-c3ccc(S(N)(=O)=O)cc3)nn2)O[C@@H]2O[C@@]3(C)CC[C@H]4[C@H](C)CC[C@@H]1[C@@]24OO3
[out] 1920

* * *

Reported IC50 values for a set of molecules
test system: HepG2; experiment: Antiproliferative activity against human HepG2 cells assessed as inhibition of cell growth by MTT assay; assay type: functional, cell-based
Report only the number, with the unit µM understood.

[in] Let me know recorded IC50 for CCCCCCCCCCCC[C@@H](O)C[C@H]1O[C@@H]2O[C@@]3(C)CC[C@H]4[C@H](C)CC[C@@H]([C@H]1C)[C@@]24OO3 , thanks.
[out] 4.4

[in] Let me know recorded IC50 for CCCCCCCCNC(=O)C[C@H]1O[C@@H]2O[C@@]3(C)CC[C@H]4[C@H](C)CC[C@@H]([C@H]1C)[C@@]24OO3 , thanks.
[out] 9.5

[in] Let me know recorded IC50 for CCCCCCCCCCCC[C@H](O)C[C@H]1O[C@@H]2O[C@@]3(C)CC[C@H]4[C@H](C)CC[C@@H]([C@H]1C)[C@@]24OO3 , thanks.
[out] 2.8

[in] Let me know recorded IC50 for C[C@@H]1CC[C@H]2[C@@H](C)C(=O)O[C@@H]3O[C@@]4(C)CC[C@@H]1[C@]32OO4 , thanks.
[out] 97

[in] Let me know recorded IC50 for CCCCCCCCCCCCNC(=O)C[C@H]1O[C@@H]2O[C@@]3(C)CC[C@H]4[C@H](C)CC[C@@H]([C@H]1C)[C@@]24OO3 , thanks.
[out] 1.2

[in] Let me know recorded IC50 for CCCCCCCCCCCCOC(=O)C[C@H]1O[C@@H]2O[C@@]3(C)CC[C@H]4[C@H](C)CC[C@@H]([C@H]1C)[C@@]24OO3 , thanks.
[out] 0.72

Moving on to the next molecule.
[in] Let me know recorded IC50 for CCCCCCCCCCCCC(=O)C[C@H]1O[C@@H]2O[C@@]3(C)CC[C@H]4[C@H](C)CC[C@@H]([C@H]1C)[C@@]24OO3 , thanks.
[out] 1.4

* * *

assay: Cytotoxicity against human CCD 19Lu cells assessed as inhibition of cell growth; format: toxicity, cell-based
REPORTED METRIC: IC50 (µM)
Report only the number, with the unit µM understood.

[in] Let me know recorded IC50 for CCCCCCCCCCCCCCNC(=O)C[C@H]1O[C@@H]2O[C@@]3(C)CC[C@H]4[C@H](C)CC[C@@H]([C@H]1C)[C@@]24OO3 , thanks.
[out] 0.46

* * *

test: Cytotoxicity against human L02 cells assessed as inhibition of cell growth incubated for 72 hrs by MTT assay; type: toxicity, cell-based
REPORTED METRIC: IC50 at 72 h
Field note: include the unit after the figure.

[in] Let me know recorded IC50 at 72 h for C[C@@H]1CC[C@H]2[C@@H](C)C(N3CCN(C(=O)Oc4ccc(SC(F)(F)F)cc4)CC3)O[C@@H]3O[C@@]4(C)CC[C@@H]1[C@]32OO4 (stereo partly specified) , thanks.
[out] 12.5 µM

* * *

tested on: HepG2; assay: Antiproliferative activity against human HepG2 cells assessed as inhibition of cell growth incubated for 48 hrs by MTT assay; type: functional, cell-based; conditions: HepG2, 48 h
REPORTED METRIC: pIC50
// pIC50 is dimensionless: -log10 of concentration (M)

[in] Let me know recorded pIC50 for C[C@H]1[C@H](N2CCN(P(=O)(OCc3cncs3)N(CCCCl)CCCCl)CC2)O[C@@H]2O[C@@]3(C)CC[C@H]4[C@H](C)CC[C@@H]1[C@@]24OO3 (stereo partly specified) , thanks.
[out] 4.90

* * *

test system: HT-29; experiment: Antiproliferative activity against human HT-29 cells overexpressing carbonic anhydrase IX assessed as inhibition of cell growth incubated for 96 hrs under hypoxic condition by MTT assay; assay type: functional, cell-based; conditions: HT-29, 96 h
REPORTED METRIC: IC50
Field note: include the unit after the figure.

[in] Write down measured IC50 (HT-29) for this compound. C[C@H]1[C@@H](OCCc2cn(-c3ccc(S(N)(=O)=O)cc3)nn2)O[C@@H]2O[C@@]3(C)CC[C@H]4[C@H](C)CC[C@@H]1[C@@]24OO3
[out] 650 nM
